Test system: SW-620
Run Description: NCI tumour cell line growth inhibition, 48 h
Calls of active or inactive are those of the source. Rule as the data show it: active = GI50 up to about 1.1 µM and inactive = higher.
Value Kind: GI50

// worked examples, GI50 included
# Molecule, GI50
rows = [
    ("CCCCCCCCCCCC(=O)Oc1c(Cl)cc(Cl)c(OC(=O)C(=O)Oc2c(Cl)cc(Cl)c(OC(=O)CCCCCCCCCCC)c2Cl)c1Cl", "> 100 µM (inactive)"),
    ("COC(=O)C(C(=O)C(=O)Nc1ccc([N+](=O)[O-])cc1[N+](=O)[O-])c1nc2ccc(Cl)cc2nc1O (centres undefined)", "> 100 µM (inactive)"),
    ("O=C(CCN1CCCCC1CO)Nc1ccc2c(c1)C(=O)c1ccc(NC(=O)CCN3CCCCC3CO)cc1C2=O (centres undefined)", "3.64 µM (inactive)"),
]

State, in one line, measured GI50 of CCOC(=O)C12C(C(=O)OC)=C(C)N(NC(=O)Nc3ccccc3)C1(N)N(NC(=O)Nc1ccccc1)C(C)=C2C(=O)OC (centres undefined)
40.6 µM (inactive)

Return GI50 for the following molecule: Cc1nc2ccccc2n1CCc1nc2ccccc2s1
68.9 µM (inactive)

State its GI50: CCOP(=O)(OCC)C(=C1C=C(C(C)(C)C)C(=O)C(C(C)(C)C)=C1)P(=O)(OCC)OCC
1.89 µM (inactive)

Answer with reported GI50 of COc1cc(C=O)cc(O)c1O
> 100 µM (inactive)

Specify GI50 for CC(=O)Nc1ccc2oc(=O)c3ccccc3c2c1 and stop.
> 100 µM (inactive)

Answer with the recorded GI50 for the molecule listed here: COc1ccc(/N=C/C=C/Nc2ccc(OC)cc2)cc1
2.69 µM (inactive)
